# measured target: hLPCAT1 (Homo sapiens, UniProt Q8NF37)
# Construct: expressed in transfected cells
# Sequence (Q8NF37 1-534): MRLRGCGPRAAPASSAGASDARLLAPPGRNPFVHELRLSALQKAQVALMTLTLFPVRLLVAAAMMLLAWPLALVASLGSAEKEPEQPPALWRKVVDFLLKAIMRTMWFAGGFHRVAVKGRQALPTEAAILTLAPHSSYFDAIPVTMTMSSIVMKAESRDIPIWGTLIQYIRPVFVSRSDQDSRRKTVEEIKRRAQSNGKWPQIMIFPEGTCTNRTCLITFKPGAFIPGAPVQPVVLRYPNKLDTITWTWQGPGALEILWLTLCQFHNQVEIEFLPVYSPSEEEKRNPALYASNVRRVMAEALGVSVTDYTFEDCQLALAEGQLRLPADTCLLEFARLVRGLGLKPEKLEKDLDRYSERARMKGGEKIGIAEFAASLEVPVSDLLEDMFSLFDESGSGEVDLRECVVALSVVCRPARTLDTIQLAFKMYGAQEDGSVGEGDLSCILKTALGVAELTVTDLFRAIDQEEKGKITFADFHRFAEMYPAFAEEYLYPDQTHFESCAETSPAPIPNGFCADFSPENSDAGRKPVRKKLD
# assay remarks: acyltransferase activity assay, DPPC product by LC-MS/MS
# Type: biochemical
# condition info: 0, 0.2, 0.6, 2, 6 and 20 μM of each compound in triplicate; LC-MS/MS; read-out: IC50, product DPPC, enzyme hLPCAT1
Catalogue of molecules with associated IC50

Consider the reported IC50 for these molecules:
{"columns": ["molecule", "measured target", "IC50"],
 "data": [
  ["COc1ccc(Cl)cc1N1C(=O)C(Cl)=C(Nc2ccccc2O)C1=O", "hLPCAT1 (Homo sapiens, UniProt Q8NF37)", "> 20 µM"],
  ["CCN1C(=O)C=CC1=O [N-ethylmaleimide (NEM), N-ethylmaleimide, reference compound]", "hLPCAT1 (Homo sapiens, UniProt Q8NF37)", "1850 µM"]
]}

Then this molecule:
Prompt: What value of IC50 has been reported for the following molecule? CCCOC(=O)c1ccc(N2C(=O)C(Cl)=C(Cl)C2=O)cc1
Completion: > 20 µM

---

# measured target: hLPCAT1 (Homo sapiens, UniProt Q8NF37)
# Construct: expressed in transfected cells
# assay remarks: lyso-PAFAT (acetyltransferase) activity assay, PAF product by LC-MS/MS
# Type: biochemical
# condition info: 0, 0.2, 0.6, 2, 6 and 20 μM of each compound in triplicate; LC-MS/MS; read-out: IC50, product PAF, enzyme hLPCAT1
assay endpoint: IC50 (µM)
Just the number please, in µM, no unit attached.

Consider the reported IC50 for these molecules:
{"columns": ["molecule", "data value"],
 "data": [
  ["CCN1C(=O)C=CC1=O [N-ethylmaleimide (NEM), N-ethylmaleimide, reference compound]", 1720],
  ["COc1ccc(Cl)cc1N1C(=O)C(Cl)=C(Cl)C1=O [TSI-03]", 9.38],
  ["CC(C)OC(=O)c1ccc(N2C(=O)C(Cl)=C(Cl)C2=O)cc1 [TSI-01]", 3.02]
]}

Prompt: Query for hLPCAT1 (Homo sapiens, UniProt Q8NF37): what IC50 does the record show for COC(=O)c1ccc(N2C(=O)C(Cl)=C(Cl)C2=O)cc1 [TSI-09] ?
Completion: 10.1

Prompt: Query for hLPCAT1 (Homo sapiens, UniProt Q8NF37): what IC50 does the record show for COc1ccc(Cl)cc1N1C(=O)C(Cl)=C(Nc2ccccc2O)C1=O [TSI-04] ?
Completion: 7.79

Prompt: Query for hLPCAT1 (Homo sapiens, UniProt Q8NF37): what IC50 does the record show for O=C1C(Cl)=C(N2CCOCC2)C(=O)N1c1ccc(Oc2ccccc2)cc1 [TSI-02] ?
Completion: 8
